A collection of compounds and their measured growth
test system: MOLT-4 leukemia; assay: NCI-60 one-dose screen, 48 h (100 = growth as untreated, 0 = no growth, -100 = all killed); conditions: 10 µM unless noted
This is part of a sample that, as a whole, favours compounds with a hit. Of some 83,000 tested, about 20% had one in any assay.
Experimental readout: growth (%)

{"columns": ["Compound", "Result number"],
 "data": [
  ["Brc1ccc(Br)nn1", -13.6],
  ["CCCCC(=O)N/N=C/c1cc(I)cc(I)c1O", 28.2],
  ["CC(=O)N(CC(O)CO)c1c(I)c(C(=O)NCCO)c(I)c(C(=O)NCC(O)CO)c1I (stereo not given)", 84.3],
  ["CN1CCC(OC2c3ccccc3CCc3ccccc32)CC1", 99.5],
  ["COc1cc(/C=C/C(=O)CC(=O)/C=C/c2cc(Br)c(OC)c(OC)c2)cc(Br)c1OC", 71.5],
  ["Cc1ccc(-c2nnc(COc3ccc(-c4nnc(N)s4)cc3)o2)cc1", 77.6],
  ["CC(C)(C)[Si](C)(C)OC1[C@@H](CNC(=O)NC(=O)CCl)O[C@@H](n2cnc3c(N)ncnc32)[C@H]1O[Si](C)(C)C(C)(C)C (stereo not given in full)", -53.5],
  ["O=C(N/N=C/c1ccc(OC(F)F)c(OC2CCCC2)c1)c1cnn2c1NC(c1ccccc1)C2 (stereo not given)", 54.7],
  ["COC(=O)c1c2c(c(C)[n+]([O-])c1C)C(=O)C=C(NCc1cccc(Cl)c1)C2=O", -34.8],
  ["COc1cc(OCc2cccc(-c3ccc(C(O)c4nccs4)cc3)c2C)cc(OC)c1C=O (stereo not given)", 21.2]
]}
